assay: Inhibition of ABCG2 (unknown origin) expressed in MDCK-II cells assessed as potentiation of SN-38-induced cytotoxicity measured after 72 hrs by MTT assay
Kindly supply the reported EC50 values for the records listed here.
Answer with a number only, understood to be in nM.

(Q) I am curious: what EC50 value has been reported for N#Cc1ccc(Nc2cc(Nc3ccccc3O)nc(-c3ccccc3)n2)cc1 ?
(A) 147

(Q) Check N#Cc1ccc(Nc2cc(NCc3cccnc3)nc(-c3ccccc3)n2)cc1 too.
(A) 44

(Q) Check N#Cc1ccc(Nc2cc(Nc3ccc(O)cc3)nc(-c3ccccc3)n2)cc1 too.
(A) 171

(Q) Check N#Cc1ccc(Nc2cc(Nc3ccc(C#N)cc3)nc(-c3ccccc3)n2)cc1 too.
(A) 231

(Q) Check N#Cc1ccc(Nc2cc(NCCCCc3ccccc3)nc(-c3ccccc3)n2)cc1 too.
(A) 187

(Q) Check N#Cc1ccc(Nc2cc(-c3ccccc3)nc(-c3ccccc3)n2)cc1 too.
(A) 41

(Q) Check N#Cc1ccc(Nc2cc(NCc3ccccc3)nc(-c3ccccc3)n2)cc1 too.
(A) 26

(Q) Check N#Cc1ccc(Nc2cc(NCc3ccccn3)nc(-c3ccccc3)n2)cc1 too.
(A) 16

(Q) Check N#Cc1ccc(Nc2cc(Nc3cccc(O)c3)nc(-c3ccccc3)n2)cc1 too.
(A) 181

(Q) Check CNc1cc(Nc2ccc(C#N)cc2)nc(-c2ccccc2)n1 too.
(A) 22

(Q) Check CCCNc1cc(Nc2ccc(C#N)cc2)nc(-c2ccccc2)n1 too.
(A) 15
